test system: SK-MES-1; experiment: relative viability (nuclei count vs DMSO), 5 days (fraction); higher = more cells survive; conditions: first compound 0.05 µM
Assay metric: relative viability
Output spec: single numeric token, no unit.

Supply recorded relative viability for CC1(C)CCC(c2ccc(Cl)cc2)=C(CN2CCN(c3ccc(C(=O)NS(=O)(=O)c4ccc(N[C@H](CCN5CCOCC5)CSc5ccccc5)c(S(=O)(=O)C(F)(F)F)c4)cc3)CC2)C1 [Navitoclax] + Nc1ncn([C@H]2C[C@H](O)[C@@H](CO)O2)c(=O)n1 [Decitabine] (partner 2 µM) here.
0.349

Tell us which relative viability value is on record for CC1(C)CCC(c2ccc(Cl)cc2)=C(CN2CCN(c3ccc(C(=O)NS(=O)(=O)c4ccc(N[C@H](CCN5CCOCC5)CSc5ccccc5)c(S(=O)(=O)C(F)(F)F)c4)cc3)CC2)C1 [Navitoclax] + Cc1nc(NC(=O)N2CCC[C@H]2C(N)=O)sc1-c1ccnc(C(C)(C)C(F)(F)F)c1 [Alpelisib] (partner 2 µM)
0.922

For CC1(C)CCC(c2ccc(Cl)cc2)=C(CN2CCN(c3ccc(C(=O)NS(=O)(=O)c4ccc(N[C@H](CCN5CCOCC5)CSc5ccccc5)c(S(=O)(=O)C(F)(F)F)c4)cc3)CC2)C1 [Navitoclax] + CS(=O)(=O)N1CCN(Cc2cc3nc(-c4cccc5[nH]ncc45)nc(N4CCOCC4)c3s2)CC1 [Pictilisib] (partner 1 µM) , write its relative viability.
0.355

Entry CC1(C)CCC(c2ccc(Cl)cc2)=C(CN2CCN(c3ccc(C(=O)NS(=O)(=O)c4ccc(N[C@H](CCN5CCOCC5)CSc5ccccc5)c(S(=O)(=O)C(F)(F)F)c4)cc3)CC2)C1 [Navitoclax] + C[C@]1(O)C[C@@H](c2nc(-c3ccc4ccc(-c5ccccc5)nc4c3)c3c(N)nccn32)C1 [Linsitinib] (partner 1 µM) needs its relative viability filled in; supply it.
1.19

# return recorded relative viability for entry CC1(C)CCC(c2ccc(Cl)cc2)=C(CN2CCN(c3ccc(C(=O)NS(=O)(=O)c4ccc(N[C@H](CCN5CCOCC5)CSc5ccccc5)c(S(=O)(=O)C(F)(F)F)c4)cc3)CC2)C1 [Navitoclax] + CC(=O)c1c(C)c2cnc(Nc3ccc(N4CCNCC4)cn3)nc2n(C2CCCC2)c1=O [Palbociclib] (partner 0.5 µM)
0.336

Using known records, supply relative viability for CC1(C)CCC(c2ccc(Cl)cc2)=C(CN2CCN(c3ccc(C(=O)NS(=O)(=O)c4ccc(N[C@H](CCN5CCOCC5)CSc5ccccc5)c(S(=O)(=O)C(F)(F)F)c4)cc3)CC2)C1 [Navitoclax] + O=C(CCCCCCC(=O)Nc1ccccc1)NO [Vorinostat] (partner 1 µM)
1.15

----------
tested on: HCC-44; assay: relative viability (nuclei count vs DMSO), 5 days (fraction); higher = more cells survive; conditions: first compound 0.1 µM
Assignment: determine reported relative viability for the given molecules.
API doc: respond with a numeric literal and nothing else, no unit.

Consider the molecule NC(=O)Nc1cc(-c2cccc(F)c2)sc1C(=O)N[C@H]1CCCNC1 [AZD7762] + CC(C)C[C@H](NC(=O)[C@H](Cc1ccccc1)NC(=O)c1cnccn1)B(O)O [Bortezomib] (partner 0.002 µM) . State its measured relative viability.
0.919

Provide relative viability value for the following molecule: NC(=O)Nc1cc(-c2cccc(F)c2)sc1C(=O)N[C@H]1CCCNC1 [AZD7762] + CCNC(=O)c1noc(-c2cc(C(C)C)c(O)cc2O)c1-c1ccc(CN2CCOCC2)cc1 [Luminespib] (partner 0.01 µM)
0.918

Hello, please tell me recorded relative viability for this one: NC(=O)Nc1cc(-c2cccc(F)c2)sc1C(=O)N[C@H]1CCCNC1 [AZD7762] + O=C(CCCCCCC(=O)Nc1ccccc1)NO [Vorinostat] (partner 1 µM)
1.1

Provide only the value of recorded relative viability for NC(=O)Nc1cc(-c2cccc(F)c2)sc1C(=O)N[C@H]1CCCNC1 [AZD7762] + CS(=O)(=O)N1CCN(Cc2cc3nc(-c4cccc5[nH]ncc45)nc(N4CCOCC4)c3s2)CC1 [Pictilisib] (partner 1 µM)
0.584

Provide relative viability value for the following molecule: NC(=O)Nc1cc(-c2cccc(F)c2)sc1C(=O)N[C@H]1CCCNC1 [AZD7762] + Cc1nc(NC(=O)N2CCC[C@H]2C(N)=O)sc1-c1ccnc(C(C)(C)C(F)(F)F)c1 [Alpelisib] (partner 2 µM)
0.831

Specify measured relative viability for NC(=O)Nc1cc(-c2cccc(F)c2)sc1C(=O)N[C@H]1CCCNC1 [AZD7762] + CC(=O)Nc1cccc(-n2c(=O)n(C3CC3)c(=O)c3c(Nc4ccc(I)cc4F)n(C)c(=O)c(C)c32)c1 [Trametinib] (partner 0.02 µM) .
1.12

Specify relative viability for NC(=O)Nc1cc(-c2cccc(F)c2)sc1C(=O)N[C@H]1CCCNC1 [AZD7762] + Nc1nc2[nH]cc(CCc3ccc(C(=O)N[C@@H](CCC(=O)O)C(=O)O)cc3)c2c(=O)[nH]1 [Pemetrexed] (partner 0.2 µM) and stop.
0.534
